B1: CPEB3 Ribozyme (parent)
chain: GGGGGCCACAGCAGAAGCGUUCACGUCGCGGCCCCUGUCAGAUUCUGGUGAAUCUGCGAAUUCUGCUGU

- Variants of: B1
- Run Description: self-cleavage, relative activity (ratio to wild type); higher = more cleavage; co-transcriptional

Mutation String: C32U C33U
self-cleavage: 0.861
--
Mutation String: G4U C12G
self-cleavage: 0.182
--
Mutation String: C18G C27A
self-cleavage: 0.16
--
Mutation String: C32G G37U
self-cleavage: 0.149
--
Mutation String: G19U C57G
self-cleavage: 0.218
--
Mutation String: C18A U44G
self-cleavage: 0.123
--
Mutation String: G37C G56A
self-cleavage: 0.205
--
Mutation String: G1A G5A
self-cleavage: 0.15
--
Mutation String: U53G A60G
self-cleavage: 0.793
--
Mutation String: G2C G48U
self-cleavage: 0.105
--
Mutation String: G2A C6U
self-cleavage: 0.0868
--
Mutation String: C6U G28A
self-cleavage: 0.0973
--
Mutation String: C6G C24U
self-cleavage: 0.193
--
Mutation String: G1U C27G
self-cleavage: 0.0589
--
Mutation String: C54A U61C
self-cleavage: 0.44
--
Mutation String: G17A U49C
self-cleavage: 0.486
--
Mutation String: G48U U69G
self-cleavage: 1.05
--
Mutation String: C32G C35A
self-cleavage: 0.143
--
Mutation String: U38G C66U
self-cleavage: 0.194
--
Mutation String: C57A C66U
self-cleavage: 0.267
--
Mutation String: U38C C63U
self-cleavage: 0.876
--
Mutation String: G4A C57G
self-cleavage: 0.217
--
Mutation String: A51G A60U
self-cleavage: 0.589
--
Mutation String: G1C G25C
self-cleavage: 0.103
--
Mutation String: G41A G48A
self-cleavage: 0.989
--
Mutation String: G41U U64C
self-cleavage: 0.382
--
Mutation String: C7G C34G
self-cleavage: 0.0956
--
Mutation String: U20C G48U
self-cleavage: 0.242
--
Mutation String: A42C U44G
self-cleavage: 0.816
--
Mutation String: G30U U36A
self-cleavage: 0.198
--
Mutation String: G19C U55G
self-cleavage: 0.172
--
Mutation String: G2C U64C
self-cleavage: 0.0536
--
Mutation String: G30A A51G
self-cleavage: 0.744
--
Mutation String: C33G G37U
self-cleavage: 0.245
--
Mutation String: C7G A52U
self-cleavage: 0.301
--
Mutation String: G1A G56A
self-cleavage: 0.0858
--
Mutation String: U38G C45A
self-cleavage: 0.286
--
Mutation String: G31C G37U
self-cleavage: 0.203
--
Mutation String: G19U G65A
self-cleavage: 0.254
--
Mutation String: G47U G58A
self-cleavage: 0.946
--
Mutation String: G48U A60G
self-cleavage: 0.979
--
Mutation String: G25C C66G
self-cleavage: 0.0932
--
Mutation String: C34A G37U
self-cleavage: 0.26
--
Mutation String: G14U U61G
self-cleavage: 0.432
--
Mutation String: A10U G68C
self-cleavage: 1.05
--
Mutation String: A23C G56C
self-cleavage: 0.762
--
Mutation String: G1C G48U
self-cleavage: 0.241
--
Mutation String: C7G C45U
self-cleavage: 0.425
--
Mutation String: G2A U43G
self-cleavage: 0.144
--
Mutation String: G31U G65U
self-cleavage: 0.352
--
Mutation String: C33A C54G
self-cleavage: 0.301
--
Mutation String: A8C C35G
self-cleavage: 0.421
--
Mutation String: G1U C66G
self-cleavage: 0.0803
--
Mutation String: U21G C33A
self-cleavage: 0.163
--
Mutation String: G4U G56C
self-cleavage: 0.339
--
Mutation String: C45G U53G
self-cleavage: 0.858
--
Mutation String: G11U G25A
self-cleavage: 0.141
--
Mutation String: G19A U46C
self-cleavage: 0.103
--
Mutation String: C39U U67C
self-cleavage: 0.882
--
Mutation String: A15C U38A
self-cleavage: 0.595
--
Mutation String: C7U U67C
self-cleavage: 0.982
--
Mutation String: U43C A51C
self-cleavage: 0.968
--
Mutation String: C12A A40C
self-cleavage: 0.209
--
Mutation String: G1C G5U
self-cleavage: 0.114
--
Mutation String: C22U A51C
self-cleavage: 0.291
--
Mutation String: C7G U61A
self-cleavage: 0.159
--
Mutation String: C29U G50A
self-cleavage: 0.524
--
Mutation String: G14U C57U
self-cleavage: 0.351
--
Mutation String: U44G G65U
self-cleavage: 0.674
--
Mutation String: G58U U67A
self-cleavage: 0.982
--
Mutation String: G30U A52C
self-cleavage: 0.395
--
Mutation String: G41C U61G
self-cleavage: 0.345
--
Mutation String: G4U G30C
self-cleavage: 0.108
--
Mutation String: G25A C35U
self-cleavage: 0.152
--
Mutation String: G4A C18A
self-cleavage: 0.147
--
Mutation String: G11U U67C
self-cleavage: 0.96
--
Mutation String: C7U A40C
self-cleavage: 0.282
